- Test description: p53 small molecule agonists, cell-based qHTS assay with rat liver microsomes: qHTS cell viability counter screen (AID 1963580); further: on the % scale 0 is the no-effect control and ±100 the full control effect; nearly all actives have a fitted effect of over 45% in size
- Condition details: p53RE-bla HCT-116 + rat microsomes, ATP viability, 16 h; series mostly up to 66 µM
Inconclusive results are not listed. Calls of active or inactive are those of the source. The call rests on the fitted dose curve.
Quantity name: activity change, negative = cytotoxicity

Worked examples, 4 molecules total:
Molecule: Cc1c(C)c2c(c(C)c1OC(=O)CCC(=O)O)CC[C@@](C)(CCC[C@H](C)CCC[C@H](C)CCCC(C)C)O2
Experimental result: inactive
--
Molecule: C[C@@H](CN1CC(=O)NC(=O)C1)N1CC(=O)NC(=O)C1
Experimental result: inactive
--
Molecule: O=C(Oc1ccccc1C(=O)O)c1ccccc1O
Experimental result: inactive
--
Molecule: CCn1cc(C(=O)O)c(=O)c2cc(F)c(N3CCNCC3)cc21
Experimental result: inactive

Proceeding to the next molecule to report its activity change, negative = cytotoxicity.
For this molecule ( CCOC(CN1CCN(CC(C)C(=O)c2ccccc2)CC1)c1ccccc1 (stereo not given) ), measured activity change, negative = cytotoxicity is 0.0683% [at 13.5 µM] (inactive)

----------
- Test description: p53 small molecule agonists, cell-based qHTS assay (AID 1963582); further: on the % scale 0 is the no-effect control and ±100 the full control effect
- Condition details: HCT-116 p53RE-bla reporter, beta-lactamase FRET ratio, 16 h; series mostly up to 66 µM
Records with an inconclusive call do not appear. The source made the active and inactive calls. Calls come from the whole dose curve; as a rule, active = well fitted activation curve with a large enough effect in the signal ratio in the repeat runs (not every such curve was filed as active); inconclusive = weak or mixed curves; inactive = flat fitted curve, though single readings scatter; the % refers to the signal ratio.
Quantity name: activation

Please review the following examples before continuing.
Compound: Oc1cn2c(n1)Nc1ccc(Cl)c(Cl)c1C2
activation: 2.32% [at 13.5 µM] (inactive)
--
Compound: Cc1c(NC(C)C)c(=O)n(-c2ccccc2)n1C
activation: inactive
--
Compound: C=CC(C)C#N (configuration not stated)
activation: inactive
--
Compound: Cc1ccccc1C(=O)O
activation: inactive
--
Compound: [O-][n+]1cccc(CO)c1
activation: inactive

Lab note: COc1cc(C(=O)OC(COCCC(C)C)CN2CCOCC2)cc(OC)c1OC (configuration not stated) gave activation of inactive

----------
- Test description: Nuclear factor erythroid 2-related factor 2/antioxidant responsive element (Nrf2/ARE) small molecule agonists: luciferase reporter gene qHTS assay in human keratinocytes (AID 1919969); further: nearly all actives have a fitted effect of over 35% in size
- Condition details: KeratinoSens HaCaT ARE-luciferase, luminescence, 24 h; series mostly up to 92.4 µM
Inconclusive results are not listed. The source made the active and inactive calls. Calls come from the whole dose curve.
A correct response names exactly one class from active, inactive

Ask: What was the test verdict on O=C(C1CCCCC1)N1CC(=O)N2CCCc3ccccc3C2C1 (configuration not stated) ?
Reply: inactive

Ask: Just curious, what result did O=C(N[C@@H](Cc1ccccc1)[C@@H](O)C(=O)N1C[C@@H](O)[C@@H](O)C1)c1cc2cc(Cl)ccc2[nH]1 get here?
Reply: inactive

Ask: Given CCN(CCC#N)c1ccc(N=Nc2ccc([N+](=O)[O-])cc2)cc1 , state the outcome it received in this test.
Reply: inactive

Ask: Call for entry Cc1cc(O)ccc1N :
Reply: active

Ask: # outcome recorded in this test, key = CC(C)(C)NSc1nc2ccccc2s1
Reply: active

Ask: Fill in: this test's call for CN1CC(=O)NC1=N is ___
Reply: inactive

Ask: Tell me the recorded outcome of this test for Cc1cc(S(=O)(=O)O)ccc1N=Nc1c(O)ccc2ccccc12 .
Reply: inactive

Ask: Hi team, can someone confirm the assay call for Cc1cccc(N(C)C(=S)Oc2ccc3c(c2)CCC3)c1 ?
Reply: inactive

Ask: What call does the record list for Cc1cccc([N+](=O)[O-])c1C(=O)O ?
Reply: inactive

Ask: Given COCCOC(=O)C1=C(C)NC(C)=C(C(=O)OC/C=C/c2ccccc2)C1c1cccc([N+](=O)[O-])c1 (configuration not stated) , state the outcome it received in this test.
Reply: inactive

Ask: Dear colleague, could you share the recorded outcome for Cc1nc(-c2ccc(Cl)cc2)oc1COC(C)(C)C(=O)O when you have a moment?
Reply: inactive

Ask: // outcome(item) with item = CCCCC/C=C\CCC=O
Reply: inactive

Ask: Field: outcome | Entry: CC(C)NCC(O)c1ccc2ccccc2c1 (configuration not stated)
Reply: inactive

Ask: Give the logged outcome of this assay for the following compound: ClC1=C(Cl)C1(Cl)Cl
Reply: inactive

Ask: Look up the recorded call for CC(C)C/C=C(\C=O)c1ccccc1 in this test.
Reply: inactive

Ask: Any idea what this test logged for O=C(NCCc1c[nH]c2ccccc12)c1cccnc1 ?
Reply: inactive

Ask: Kindly provide the recorded test outcome for the following compound: CCN(CC)CCNc1ccc(CNC=O)c2sc3ccc(OC)cc3c(=O)c12
Reply: active

Ask: Assay result, entry COc1cc(OC)nc(NC(=O)NS(=O)(=O)Nc2ccccc2C(=O)N(C)C)n1 — outcome?
Reply: inactive

Ask: Outcome logged for O=C(CCCCC(=O)Nc1c(I)cc(I)c(C(=O)O)c1I)Nc1c(I)cc(I)c(C(=O)O)c1I in this assay:
Reply: inactive

Ask: State the result this test recorded for Nc1nc(-c2ccccc2)c(Br)c(=O)[nH]1 .
Reply: inactive

Ask: Dear colleague, could you share the recorded outcome for CO[Si](OC)(OC)OC when you have a moment?
Reply: inactive

Ask: Assay result, entry CCOC(=O)OC(C)OC1=C(C(=O)Nc2ccccn2)N(C)S(=O)(=O)c2ccccc21 (configuration not stated) — outcome?
Reply: inactive

Ask: I'd appreciate the recorded outcome for CCCC(C)C=O (configuration not stated) from this test.
Reply: inactive

Ask: Write down the call the test reported for this compound. Item: O=C1Nc2cc(Cl)ccc2Oc2ccccc21
Reply: inactive

Ask: Outcome? Cc1cc(C)n(CO)n1
Reply: inactive

Ask: Could you please tell me the result logged for CCOC(=O)C1=C(C)NC(C)=C(C(=O)OC)C1c1cccc([N+](=O)[O-])c1 (configuration not stated) in this assay?
Reply: inactive

Ask: Fill in: this test's call for CNCc1ccccc1 is ___
Reply: inactive

Ask: For CCCCCN(CCCCC)C(=O)C(CCC(=O)O)NC(=O)c1ccc(Cl)c(Cl)c1 (configuration not stated) , what call appears in the results of this test?
Reply: inactive

Ask: # lookup: test call for Nc1ccc2cc(S(=O)(=O)O)ccc2c1
Reply: inactive

Ask: Record lookup: outcome of this test for CCOC(=O)[C@H](CCc1ccccc1)N[C@@H](C)C(=O)N(CC(=O)O)C1Cc2ccccc2C1 ?
Reply: inactive

Ask: What was the test verdict on COC(=O)c1ccc(I)cc1S(=O)(=O)NC(=O)Nc1nc(C)nc(OC)n1 ?
Reply: inactive

Ask: Assay result, entry CCN(CC)CCOc1ccc(Cc2ccccc2)cc1 — outcome?
Reply: inactive

Ask: Recorded test outcome, item CCCC1CCCC(=O)O1 (configuration not stated)
Reply: inactive

Ask: Given CNC(=O)c1cnn(-c2nc(N)c3ncn([C@@H]4O[C@H](CO)[C@@H](O)[C@H]4O)c3n2)c1 , state the outcome it received in this test.
Reply: inactive

Ask: Could you kindly confirm the outcome this assay logged for Nc1cc(C(=O)O)ccc1Cl ?
Reply: inactive

Ask: Give the logged outcome of this assay for the following compound: O=C(O)Cc1cn(-c2ccccc2)nc1-c1ccc(Cl)cc1
Reply: inactive

Ask: I'd appreciate the recorded outcome for Cn1cccc1 from this test.
Reply: inactive

Ask: Would you mind telling me which call this test gave CCc1cc(Cc2cc(CC)cc(C(C)(C)C)c2O)c(O)c(C(C)(C)C)c1 ?
Reply: inactive

Ask: Recorded test outcome, item C[N+](C)(C)CCOC(=O)CCC(=O)OCC[N+](C)(C)C
Reply: inactive

Ask: Write down the call the test reported for this compound. Item: OCC(CBr)(CBr)CBr
Reply: inactive

Ask: State the result this test recorded for Cc1cc(O)c(C)c(C)c1O .
Reply: inactive

Ask: What did this assay record as the result for Cc1ccc(/C=N/n2c(-c3ccccc3)csc2=S)cc1 ?
Reply: inactive

Ask: What classification did O=P(O)(O)C(O)(Cc1cccnc1)P(=O)(O)O end up with in this test?
Reply: inactive

Ask: Tell me the recorded outcome of this test for C/C(=N\[Si](C)(C)C)O[Si](C)(C)C .
Reply: inactive

Ask: Tell me the recorded outcome of this test for O=C1CCCCCCCCCCCCCC1 .
Reply: inactive

Ask: Assay result, entry CCC(C(=O)OCCN1CCOC(c2ccccc2)C1C)c1ccccc1 (configuration not stated) — outcome?
Reply: inactive

Ask: # fetch the recorded call for Cc1[nH]cnc1CN1CCc2c(c3ccccc3n2C)C1=O here
Reply: inactive

Ask: I would be grateful if you could indicate the recorded call for CC1(N)CCC(C(C)(C)N)CC1 (configuration not stated) .
Reply: inactive

Ask: Which outcome did this test record for the compound CC(CO)(CO)C(=O)O ?
Reply: inactive

Ask: Can you look up the reported call for CCCCC(CC)CN1C(=O)C2C3C=CC(C3)C2C1=O (configuration not stated) for me?
Reply: active

Ask: So what was the verdict on O=C(O)c1cc(C(=O)O)c(C(=O)O)cc1C(=O)O in this test?
Reply: inactive

Ask: How did this test come out for Cc1ccc(=O)n(-c2ccccc2)c1 ?
Reply: inactive
